system: sicklepod (Cassia obtusifolia, CASOB); experiment: Pre-emerge test, greenhouse herbicide activity screening; assay type: in vivo; conditions: pre-emerge, 250 g ai/ha, 14 days after application, scale 0-100
Assign class by phytotoxicity rating CASOB: not lower than 70 means true; lower than 70 means false.

Examples from the recorded data:
[[record]]
compound_structure = "CCCSCC(=O)Nc1c(OC)c(Cl)cc(F)c1-n1c(=O)cc(C(F)(F)F)n(C)c1=O"
assigned_class = "true"

[[record]]
compound_structure = "COc1c(Cl)cc(F)c(-n2c(=O)cc(C(F)(F)F)n(C)c2=O)c1NC(=O)c1c(C)cccc1C"
assigned_class = "false"

[[record]]
compound_structure = "COc1c(Br)cc(F)c(-n2c(=O)cc(C(F)(F)F)n(C)c2=O)c1N(C(=O)C=Cc1ccccc1)C(=O)C=Cc1ccccc1"
assigned_class = "false"

[[record]]
compound_structure = "COc1c(C#N)cc(F)c(-n2c(=O)cc(C(F)(F)F)n(C)c2=O)c1NC(=O)c1ccc2ccccc2c1"
assigned_class = "true"

[[record]]
compound_structure = "COc1c(Cl)cc(F)c(-n2c(=O)cc(C(F)(F)F)n(C)c2=O)c1NC(=O)c1ccc2cccc(F)c2c1"
assigned_class = "false"


Exercise: Has `COc1c(Cl)cc(F)c(-n2c(=O)cc(C(F)(F)F)n(C)c2=O)c1NC(=O)C(C#N)=Cc1ccccc1` a recorded phytotoxicity rating CASOB greater than or equal to 70?
Key: false
